Let's go through some recorded CC50 values for PS cells together.

[
  {
    "STRUCTURE": "NCCOc1cc(NC(=O)c2cc(OCc3cn(CCC(=O)O)nn3)cc(C(=O)Nc3cc(OCCN)c4ccccc4n3)n2)nc2ccccc12",
    "CC50": "> 50 µM"
  }
]

Continue with the next molecule.
Lookup: Requested field: CC50. Item: CN(C)c1ccc(Nc2c3ccc(NC(=O)CCN4CCCC4)cc3nc3cc(NC(=O)CCN4CCCC4)ccc23)cc1
Found: > 50 µM

====

Let's go through some recorded EC50 values for TBEV strain Neudoerfl together.
Numbers only; they are read as µM.

Examples from the recorded data:
[
  {
    "STRUCTURE": "NCCOc1cc(NC(=O)c2cc(OCc3cn(CCC(=O)O)nn3)cc(C(=O)Nc3cc(OCCN)c4ccccc4n3)n2)nc2ccccc12",
    "MEASURED QUANTITY": "EC50",
    "EXPERIMENTAL VALUE": 4.45
  },
  {
    "STRUCTURE": "C[n+]1cc(NC(=O)c2ccc3ccc4ccc(C(=O)Nc5cc6ccccc6[n+](C)c5)nc4c3n2)cc2ccccc21",
    "MEASURED QUANTITY": "EC50",
    "EXPERIMENTAL VALUE": 5.77
  }
]

Continue with the next molecule.
Lookup: Recorded EC50 for CCC1=C(C)c2cc3[nH]c(cc4nc(cc5c(CCC(=O)O)c(C)c(cc1n2)n5C)C(CCC(=O)O)=C4C)c(C)c3CC with TBEV strain Neudoerfl, please?
Found: 0.01

====

- Test system: TBEV-5
- Type: binding, tick-borne encephalitis virus
MEASURED QUANTITY: G4 specificity of binding (titration curves with TBEV-5 versus TBEV-5mut)

[
  {
    "STRUCTURE": "CCC1=C(C)c2cc3[nH]c(cc4nc(cc5c(CCC(=O)O)c(C)c(cc1n2)n5C)C(CCC(=O)O)=C4C)c(C)c3CC",
    "EXPERIMENTAL VALUE": "specifically bind G4"
  },
  {
    "STRUCTURE": "Cc1ccc2c(c1)sc(-c1ccc(N(C)C)cc1)[n+]2C",
    "EXPERIMENTAL VALUE": "specifically bind G4"
  },
  {
    "STRUCTURE": "COc1ccc2cc3[n+](cc2c1OC)CCc1cc2c(cc1-3)OCO2",
    "EXPERIMENTAL VALUE": "specifically bind G4"
  }
]

====

Let's go through some recorded CC50 values for PS cells together.

[
  {
    "STRUCTURE": "CCC1=C(C)c2cc3[nH]c(cc4nc(cc5c(CCC(=O)O)c(C)c(cc1n2)n5C)C(CCC(=O)O)=C4C)c(C)c3CC",
    "CC50": "> 50 µM"
  },
  {
    "STRUCTURE": "C[n+]1cc(NC(=O)c2ccc3ccc4ccc(C(=O)Nc5cc6ccccc6[n+](C)c5)nc4c3n2)cc2ccccc21",
    "CC50": "> 50 µM"
  }
]

Lookup: Requested field: CC50. Item: CN1C(=Cc2cc[n+](C)c3ccccc23)Sc2ccccc21
Found: 1.8 µM
